Reference for the values: paper PMC5065612

studySystem: Idh2R140Q (mouse isocitrate dehydrogenase 2) (Mus musculus, UniProt P54071, R140Q)
Construct: Idh2R140Q knock-in mouse embryonic stem cells
Sequence (P54071 40-452 R140Q): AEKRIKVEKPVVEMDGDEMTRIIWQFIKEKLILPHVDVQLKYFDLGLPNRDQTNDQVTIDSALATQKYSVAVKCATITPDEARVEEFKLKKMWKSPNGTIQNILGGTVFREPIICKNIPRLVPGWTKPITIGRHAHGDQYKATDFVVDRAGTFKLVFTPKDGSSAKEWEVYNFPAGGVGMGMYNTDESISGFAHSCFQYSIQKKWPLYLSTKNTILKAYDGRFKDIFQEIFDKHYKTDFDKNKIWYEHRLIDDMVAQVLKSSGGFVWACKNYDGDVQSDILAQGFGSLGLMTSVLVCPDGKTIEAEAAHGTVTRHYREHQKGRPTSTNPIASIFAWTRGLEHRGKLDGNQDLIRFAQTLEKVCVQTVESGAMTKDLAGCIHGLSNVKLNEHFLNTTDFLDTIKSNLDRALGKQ
assayExplanation: 2HG production in culture medium of knock-in ES cells, LC-MS
pIC50: −log10 of the molar value.
measuredQuantity: pIC50

| moleculeSmiles | studySystem | measuredNumber |
| --- | --- | --- |
| CC(C)Nc1nc(Nc2ccnc(C(F)(F)F)c2)nc(-c2cccc(C(F)(F)F)n2)n1 | Idh2R140Q (mouse isocitrate dehydrogenase 2) (Mus musculus, UniProt P54071, R140Q) | 8.27 |
